- test.target: interaction between cTnC and the anchoring region of cTnI (cTnIAR) (Homo sapiens, UniProt P63316)
- protocol.notes: Fluorescence polarization HTS, binding and dose-response, cTnC/FAM-cTnIAR
- condition.set: cTnIAR primary screen, TOCRIScreen library, single concentration 10 μmol/L
parameter.measured: FP (mP)
Note: a bare number is incomplete; add the unit.

compound: CCn1c(-c2nonc2N)nc2cnc(Oc3cccc(NC(=O)c4ccc(OCCN5CCOCC5)cc4)c3)cc21
FP (mP): 104.8 mP

Quick request: FP (mP) for each listed item, please.
1. N=C(N)c1ccc(-c2ccc(-c3ccc(C(=N)N)cc3)o2)cc1
2. CCOc1cc(CC(=O)N[C@@H](CC(C)C)c2ccccc2N2CCCCC2)ccc1C(=O)O [Repaglinide]
3. CCN1CCN(C(=O)Cc2ccc(Nc3ncc(F)c(Nc4ccc(C(=O)Nc5ccccc5Cl)cc4)n3)cc2)CC1
4. Cc1ccc2[nH]c(=O)c(C3=NN(C(=O)CCC(=O)O)C(c4ccc(Br)cc4)C3)c(-c3ccccc3)c2c1 (stereo not drawn)
5. O=C(O)C[C@H]1CC[C@H](c2ccc(NC(=O)c3nnc(Nc4ccc(F)c(F)c4)o3)cc2)CC1
6. O=C(NCc1ccc(C(F)(F)F)cc1)Nc1cccc2cnccc12

1: 73.2 mP; 2: 103.2 mP; 3: 108.3 mP; 4: 103 mP; 5: 115.5 mP; 6: 105.5 mP

Quick request: FP (mP) for each listed item, please.
1. CCCC[P+](CCCC)(CCCC)Cc1ccc(NC(=O)[C@H](Cc2ccc3ccccc3c2)NC(=NC2CCCCC2)NC2CCCCC2)cc1.Cl.[Cl-] [WIN 64338 hydrochloride]
2. CN(C)CCCn1cc(C2=C(c3c[nH]c4ccccc34)C(=O)NC2=O)c2ccccc21 [GF 109203X]

["71 mP", "104.5 mP"]

* * *

Answer each item with its documented FP (mP).
- test.target: interaction between cTnC and switch peptide of cTnI (cTnISP) (Homo sapiens)
- protocol.notes: Fluorescence polarization HTS and dose-response, cTnC/FAM-cTnISP
- Type: binding
- condition.set: cTnISP primary screen, LOPAC 1280 library, single concentration 50 μmol/L
Where a name gives a salt, the structure may show the parent alone.
One number for each entry, in mP.

molecule: OCCN1CCN(CC/C=C2/c3ccccc3Sc3ccc(C(F)(F)F)cc32)CC1 [cis-(Z)-Flupenthixol dihydrochloride]
quantity.unit: mP
readout.number: 87.6

Quick request: FP (mP) for each listed item, please.
1. CCOC(=O)c1c(CSc2ccccc2)n(C)c2cc(Br)c(O)c(CN(C)C)c12.Cl [Arbidol hydrochloride]
2. CCCCCCCCCCCCCCCC(=O)OC(CC(=O)O)C[N+](C)(C)C.[Cl-] (racemic) [Palmitoyl-DL-Carnitine chloride]
3. CN(C)CCCN1c2ccccc2Sc2ccc(Cl)cc21 [Chlorpromazine.HCl]
4. CCN(CC)CCOc1ccc(/C(=C(/Cl)c2ccccc2)c2ccccc2)cc1.Cl [Enclomiphene hydrochloride]
5. Br.Cc1cc2nc(NCCCO)n(CC(=O)c3cc(C(C)(C)C)c(O)c(C(C)(C)C)c3)c2cc1C
6. CN1CCN(CCCN2c3ccccc3Sc3ccc(C(F)(F)F)cc32)CC1 [Trifluoperazine dihydrochloride]

89.4
109.8
91.3
78.4
89.6
84.5

Quick request: FP (mP) for each listed item, please.
1. Clc1ccc(C(c2ccc(Cl)cc2)n2cc[n+](CC(OCc3ccc(Cl)cc3Cl)c3ccc(Cl)cc3Cl)c2)cc1 (stereo not shown) [Calmidazolium chloride]
2. Cc1nc(Nc2cnn(C3CCNCC3)c2)nc2c1N(C)C(=O)c1cc3ccccc3cc1N2C
3. Cc1cc(CN2CCN(c3c(Br)cnc4nc(-c5ccc(N6CCN(C)CC6)cc5)[nH]c34)CC2)no1
4. CN1CCN(CCCN2c3ccccc3Sc3ccc(Cl)cc32)CC1 [Prochlorperazine dimaleate]
5. CSc1ccc2c(c1)C(N1CCN(C)CC1)Cc1ccccc1S2 (stereo not shown) [Methiothepin mesylate]
6. Cc1cc(CN)cc(C)c1NC(=O)c1ccc(-c2cc(Cl)ccc2Cl)o1

83.6
87
87
86.2
86.5
84.1
